# Test system: OVCAR-5
# PROTOCOL: NCI tumour cell line growth inhibition, 48 h
Active and inactive are the calls of the source. Cut-off read from the data, not from the text of the source: active = GI50 up to about 1.1 µM and inactive = higher.
Parameter call: string, one of active, inactive

// known answers, use as guide
Cn1c(=O)cc(NCCc2ccccc2)[nH]c1=O :: inactive
Nc1nc(N)c(C2=CCN(Cc3ccccc3)CC2)c(=O)[nH]1 :: inactive
N=C1C=C(N)C(=O)c2[nH]c(=O)ccc21 :: inactive
CC(=O)N1C(=O)C(=O)c2cc(Cl)ccc21 :: inactive
O=C1OC(c2ccc(O)c(F)c2)(c2ccc(O)c(F)c2)c2cccc3cccc1c23 :: inactive
COc1ccc(NC(=O)C2C(=O)N(c3ccc(OC)cc3)C(=O)/C2=N/O)cc1 (stereo not given) :: inactive

In the following, a different molecule is considered.
Recorded call for CN(C)C(n1cc2c(c1)-c1ccc(Cl)cc1C(c1ccccc1F)=NC2)n1cc2c(c1)-c1ccc(Cl)cc1C(c1ccccc1F)=NC2 ?
inactive
